target: HaloTag-ING2 PHD (mouse Ing2 200-280)
procedureSummary: peptide microarray binding signal (635 nm), min-max normalized on array (fraction of array maximum); higher = stronger binding
runConditions: peptide region: Unmod H2B variant; binder concentration: 10 nM
I would appreciate it if you labelled entries 1.0 when peptide microarray binding signal is 0.007 or higher, otherwise 0.0.

Would you say PDPAKSAPAPKKG [Unmod H2B variant P D P A K S A P A P K K G] shows peptide microarray binding signal at minimum 0.007?
0.0

Would you say PKKGSKKAVTKAQ [Unmod H2B variant P K K G S K K A V T K A Q] shows peptide microarray binding signal at minimum 0.007?
0.0

Would you say YSKRSTISSREIQ [Unmod H2B variant Y S K R S T I S S R E I Q] shows peptide microarray binding signal at minimum 0.007?
1.0

Would you say PEPTKSAPAPKKG [Unmod H2B variant P E P T K S A P A P K K G] shows peptide microarray binding signal at minimum 0.007?
1.0

Would you say PGELAKHAVSEGT [Unmod H2B variant P G E L A K H A V S E G T] shows peptide microarray binding signal at minimum 0.007?
1.0

Would you say KHAVSEGTKAVTK [Unmod H2B variant K H A V S E G T K A V T K] shows peptide microarray binding signal at minimum 0.007?
0.0

Would you say AMSIMNSFVTDIF [Unmod H2B variant A M S I M N S F V T D I F] shows peptide microarray binding signal at minimum 0.007?
1.0

Would you say VPKKGSKKAINKA [Unmod H2B variant V P K K G S K K A I N K A] shows peptide microarray binding signal at minimum 0.007?
0.0

Would you say PEPAKSAPAPKKG [Unmod H2B variant P E P A K S A P A P K K G] shows peptide microarray binding signal at minimum 0.007?
0.0

These measurements were taken from the supplement of paper PMC4022240.
